- measured-target: unrelated Fc-fused recombinant protein (negative control)
- protocol-summary: ELISA, bacterial lysate on plate-bound antigen, luminescence
Examples of binders with documented ELISA Fc Control (RLU) follow.
Reply numerically in RLU, unit not repeated.

[[record]]
binder = "ISOP120ER5P1C6 (designed binder, not shown: small tags and cut ends, FN3 domain (Centyrin); tested as E. coli lysate) LPAPKNLVVSRVTEDSARLSWTAPDAAFDSFSIYYGEWHALGEAIVLTVPGSERSYDLTGLKPGTEYVVTIYGVKGGTYSLPLSAISTT"
measured_number = 320


What does the data say about its ELISA Fc Control (RLU)? Entry: ISOP120BR5P1H3 (designed binder, not shown: small tags and cut ends, FN3 domain (Centyrin); tested as E. coli lysate) LPAPKNLVVSRVTEDSARLSWEESRQFFDSFLIQYQESEKVGEAIVLTVPGSERSYDLTGLKPGTEYTVSIYGVVHRAWLRWNGSNPLSAIFTT
2000
